- System: L1210 leukemia ip in BDF1 mice, survival T/C
- test_protocol: NCI In Vivo Anticancer Drug Screen. Data for tumor model L1210 Leukemia (intraperitoneal) in B6D2F1 (BDF1) mice
- cond: endpoint: mean survival time; dose: 200.0 mg/kg/injection; schedule: Q04DX003 (ip); vehicle: saline; higher = longer survival
Toxic doses and inconclusive results are not listed.
Listed below: T/C values for each entry.

Nc1ncnc2c1ncn2CCCCl; 106 % of control
OCCCN1CCC2(CC1)SSC1(CCN(CCCO)CC1)S2; 98 % of control

Inquiry: State, in one line, measured T/C of CC(C)(C)c1cccc(C(C)(C)C)c1O
Reply text: 98 % of control

Inquiry: Entry CCOC(CN)OCC needs its T/C filled in; supply it.
Reply text: 102 % of control

----------
Reported T/C values follow for various compounds
- Tested on: L1210 leukemia ip in BDF1 mice, survival T/C
- test_protocol: NCI In Vivo Anticancer Drug Screen. Data for tumor model L1210 Leukemia (intraperitoneal) in B6D2F1 (BDF1) mice
- cond: endpoint: mean survival time; dose: 400.0 mg/kg/injection; schedule: Q01DX009 (ip); vehicle: Klucel (hydroxypropylcellulose) (HPC); higher = longer survival
Inconclusive results and toxic doses are left out.

Inquiry: Determine from records and report T/C for Cc1c(C)c(Cl)c(C)c(Cl)c1O
Reply text: 91 % of control

Inquiry: Report measured T/C; entry is CCCCCCC1CCC(C(=O)O)CC1 (stereo not given)
Reply text: 89 % of control

Inquiry: Assign T/C to the following record: CC(=O)Oc1ccc(C2(c3ccc(OC(C)=O)cc3)C(=O)Nc3ccccc32)cc1
Reply text: 104 % of control

----------
- System: L1210 leukemia ip in BDF1 mice, survival T/C
- test_protocol: NCI In Vivo Anticancer Drug Screen. Data for tumor model L1210 Leukemia (intraperitoneal) in B6D2F1 (BDF1) mice
- cond: endpoint: mean survival time; dose: 400.0 mg/kg/injection; schedule: Q01DX001 (ip); vehicle: carboxymethylcellulose (CMC); higher = longer survival
Toxic doses and inconclusive results are not listed.
measured_parameter: T/C

O=c1[nH]c2ccccc2c2cc3ccccc3cc12; 93 % of control
Cc1ccc(NCC(=O)NN)cc1C; 96 % of control
Cc1ccnc(NS(=O)(=O)c2ccc(N=Nc3c(N)n(C)c(=O)n(C)c3=O)cc2)n1; 95 % of control
CC(C)(C)O[Si](OCC(F)(F)C(F)(F)C(F)(F)C(F)(F)C(F)(F)C(F)F)(OCC(F)(F)C(F)(F)C(F)(F)C(F)(F)C(F)(F)C(F)F)OC(C)(C)C; 94 % of control
Cc1ccc(S(=O)(=O)N=S(C)C)cc1; 93 % of control

Inquiry: Consider the molecule Cc1cc(/C=N/N2CCN(/N=C/c3cc(C)n(-c4ccccc4)c3C)CC2)c(C)n1-c1ccccc1 and give its recorded T/C.
Reply text: 90 % of control

Inquiry: Look up and state reported T/C for Cc1ccc(S(=O)(=O)Nc2cc(C)ccc2C)cc1
Reply text: 88 % of control

----------
- Test system: L1210 leukemia ip in BDF1 mice, survival T/C
- test_protocol: NCI In Vivo Anticancer Drug Screen. Data for tumor model L1210 Leukemia (intraperitoneal) in B6D2F1 (BDF1) mice
- cond: endpoint: mean survival time; dose: 100.0 mg/kg/injection; schedule: Q01DX009 (ip); vehicle: Klucel (hydroxypropylcellulose) (HPC); higher = longer survival
Toxic doses and inconclusive results are not listed.
Catalogue of molecules with associated T/C

Guide cases for T/C, answers given:
O=C(NNCc1ccccc1)C(O)C(O)C(O)CO (stereo not given); 104 % of control
O=C(N/N=C/c1ccc(Cl)cc1)C(O)c1ccccc1 (stereo not given); 87 % of control
O=[N+]([O-])c1cccc(C=Nc2cc([N+](=O)[O-])ccc2O)c1; 88 % of control
CCCC(=O)c1ccc(OC)c(OC)c1; 101 % of control

Let us move to another entry and its T/C.
Inquiry: Supply reported T/C belonging to this molecule: O=C(OCc1ccccc1)C(=O)OCc1ccccc1
Reply text: 90 % of control
